The values you see were collected from patent US12258354B2.

Reported pIC50 values are given for each entry in this list.
# Measurement target: hAhR (Homo sapiens, UniProt P35869)
# Construct: Stably integrated DRE-luciferase cell lines were generated by transducing the both cell lines with Cignal XRE luciferase reporter; endogenous in cells
# Sequence (P35869 11-848): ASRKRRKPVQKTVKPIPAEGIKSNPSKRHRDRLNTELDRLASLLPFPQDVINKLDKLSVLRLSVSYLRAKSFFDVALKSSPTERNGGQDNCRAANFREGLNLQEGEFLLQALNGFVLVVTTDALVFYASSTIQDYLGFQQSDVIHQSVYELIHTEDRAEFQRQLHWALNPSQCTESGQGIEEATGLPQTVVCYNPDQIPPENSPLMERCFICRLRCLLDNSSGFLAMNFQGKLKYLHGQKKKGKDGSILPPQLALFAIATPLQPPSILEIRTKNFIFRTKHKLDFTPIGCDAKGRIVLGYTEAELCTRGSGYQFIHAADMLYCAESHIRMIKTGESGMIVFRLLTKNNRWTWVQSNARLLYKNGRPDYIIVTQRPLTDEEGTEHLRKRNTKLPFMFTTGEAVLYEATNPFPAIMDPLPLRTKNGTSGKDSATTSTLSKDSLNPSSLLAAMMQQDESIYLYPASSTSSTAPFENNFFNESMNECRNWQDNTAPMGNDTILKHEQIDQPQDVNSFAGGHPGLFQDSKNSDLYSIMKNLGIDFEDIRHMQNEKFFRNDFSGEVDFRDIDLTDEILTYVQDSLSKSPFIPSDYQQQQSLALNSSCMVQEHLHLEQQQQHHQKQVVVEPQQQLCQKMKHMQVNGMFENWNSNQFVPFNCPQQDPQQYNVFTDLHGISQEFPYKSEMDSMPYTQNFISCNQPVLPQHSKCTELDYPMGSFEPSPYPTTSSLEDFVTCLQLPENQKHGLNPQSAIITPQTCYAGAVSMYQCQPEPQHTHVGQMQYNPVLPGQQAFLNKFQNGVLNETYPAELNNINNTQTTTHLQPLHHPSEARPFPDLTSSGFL
# Protocol notes: DRE-luciferase transcriptional reporter assay in HEPG2 DRE-Luc cells, TCDD-induced (antagonist mode)
# Particulars: relative IC50, 3 nM TCDD, 24-hour incubation, firefly luciferase readout
pIC50: −log10 of the molar value.
Measured parameter: pIC50

1. Cc1cc(-c2ncc3cc(C(F)(F)F)ccc3n2)ccc1N1CCn2ncc(C)c2C1=O : > 6.70
2. Cc1cc(-c2ncc3cc(C(F)(F)F)ccc3n2)ccc1N1CCn2nc(CO)c(C)c2C1=O : > 6.70
3. Cc1cc(-c2ncc3cc(C(F)(F)F)ccc3n2)ccc1N1CCn2ncc(CO)c2C1=O : > 6.70
